target: SST2 (Homo sapiens)
Sequence (P30874 whole entry): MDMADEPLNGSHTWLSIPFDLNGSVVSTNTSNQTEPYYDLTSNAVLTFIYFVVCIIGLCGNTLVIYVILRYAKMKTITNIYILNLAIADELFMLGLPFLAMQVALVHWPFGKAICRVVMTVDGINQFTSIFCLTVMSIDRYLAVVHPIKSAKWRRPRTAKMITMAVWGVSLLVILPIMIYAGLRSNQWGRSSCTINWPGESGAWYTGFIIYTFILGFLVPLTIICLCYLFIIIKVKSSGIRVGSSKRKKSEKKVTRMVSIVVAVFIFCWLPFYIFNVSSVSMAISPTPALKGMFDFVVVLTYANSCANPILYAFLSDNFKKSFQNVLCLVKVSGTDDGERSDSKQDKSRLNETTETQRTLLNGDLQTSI
assay protocol: Hit Hunter cAMP XS+ assay, SST2 activation via Gi (reduction of forskolin-stimulated cAMP)
Format: cell-based
condition description: read-out: SST2 (EMax)
*1 amine or outer side, *2 acyl side, *3 side chain or, on linkers, in order; H or OH if unused. Where a SMILES comes first, the peptide text is derived from it. Side-chain parts run from the residue outwards. [ ]: non-standard residue; d: D form. The star is where a group is joined. Ala(piperidin-4-yl) = O=C([C@H](CC1CCN([*:3])CC1)N[*:1])[*:2]; Ala(piperazin-1-yl) = N[C@@H](CN1CCNCC1)C(=O)O; X7 = NCCOC(=O)N1CCN([*:1])[C@H](C(=O)[*:2])C1; Ethylenediamine = C(CN[*:2])N[*:1]; d(hPhe) = N[C@H](CCc1ccccc1)C(=O)O; Hyp = O=C(O)[C@@H]1C[C@@H](O)CN1; hPhe = N[C@@H](CCc1ccccc1)C(=O)O; 3Pal = N[C@@H](Cc1cccnc1)C(=O)O; Cyclohexylmethyl = C1CCC(C*)CC1; Tic = O=C(O)[C@@H]1Cc2ccccc2CN1; Phg = N[C@H](C(=O)O)c1ccccc1; CO = O=C([*:1])[*:2]; Bn = c1ccc(C*)cc1; X4 = C1CC(C*)C1
measurement label: Emax (%)
Give just the number in %; leave the unit off.

See these solved cases before continuing.
- compound: "COc1ccc(C[C@@H]2NC(=O)[C@H](Cc3ccc(OCc4ccccc4)cc3)NC(=O)[C@H](CC3CCNCC3)NC(=O)[C@@H](Cc3c[nH]c4ccccc34)NC(=O)[C@H](CCc3ccccc3)NC(=O)[C@@H]3C[C@@H](OC(=O)NCCN)CN3C2=O)cc1 [Example 43] (cyclo([Hyp]([CO-Ethylenediamine])[hPhe][dW][Ala(piperidin-4-yl)]Y(Bn)Y(Me)))"
  unit symbol: "%"
  value observed: 101
- compound: "NCCOC(=O)N1CCN2C(=O)[C@@H]3Cc4ccccc4CN3C(=O)[C@H](Cc3ccc(OCc4ccccc4)cc3)NC(=O)[C@H](CN3CCNCC3)NC(=O)[C@@H](Cc3c[nH]c4ccccc34)NC(=O)[C@H](CCc3ccccc3)NC(=O)[C@@H]2C1 [Example 72] (cyclo([Tic][X7][hPhe][dW][Ala(piperazin-1-yl)]Y(Bn)))"
  unit symbol: "%"
  value observed: 14
- compound: "NCCNC(=O)O[C@@H]1C[C@H]2C(=O)N[C@@H](c3ccccc3)C(=O)N[C@H](Cc3c[nH]c4ccccc34)C(=O)N[C@@H](CN3CCNCC3)C(=O)N[C@@H](Cc3ccc(OCC4CCCCC4)cc3)C(=O)N[C@@H](Cc3ccccc3)C(=O)N2C1 [Example 27] (cyclo(F[Hyp]([CO-Ethylenediamine])[Phg][dW][Ala(piperazin-1-yl)]Y(Cyclohexylmethyl)))"
  unit symbol: "%"
  value observed: 90.7
- compound: "NCCNC(=O)O[C@@H]1C[C@H]2C(=O)N[C@@H](CCc3ccccc3)C(=O)N[C@H](Cc3c[nH]c4ccccc34)C(=O)N[C@@H](CC3CCNCC3)C(=O)N[C@@H](Cc3ccc(OCC4CCC4)cc3)C(=O)N[C@@H](Cc3cccnc3)C(=O)N2C1 [Example 50] (cyclo([3Pal][Hyp]([CO-Ethylenediamine])[hPhe][dW][Ala(piperidin-4-yl)]Y(X4)))"
  unit symbol: "%"
  value observed: 95.4
- compound: "COc1ccc(C[C@@H]2NC(=O)[C@H](Cc3ccc(OCc4ccccc4)cc3)NC(=O)[C@H](CC3CCNCC3)NC(=O)[C@@H](Cc3c[nH]c4ccccc34)NC(=O)[C@@H](CCc3ccccc3)NC(=O)[C@@H]3C[C@@H](OC(=O)NCCN)CN3C2=O)cc1 [Example 55] (cyclo([Hyp]([CO-Ethylenediamine])[d(hPhe)][dW][Ala(piperidin-4-yl)]Y(Bn)Y(Me)))"
  unit symbol: "%"
  value observed: 85.9

Switching to the query record.
Look up Emax with SST2 (Homo sapiens) for this compound: NCCNC(=O)O[C@@H]1C[C@H]2C(=O)N[C@H](CCc3ccccc3)C(=O)N[C@H](Cc3c[nH]c4ccccc34)C(=O)N[C@@H](CC3CCNCC3)C(=O)N[C@@H](Cc3ccc(OCC4CCCCC4)cc3)C(=O)N[C@@H](Cc3cccnc3)C(=O)N2C1 [Example 53] (cyclo([3Pal][Hyp]([CO-Ethylenediamine])[d(hPhe)][dW][Ala(piperidin-4-yl)]Y(Cyclohexylmethyl)))
50.9

====

target: SST5 (Homo sapiens)
Sequence (P35346 whole entry): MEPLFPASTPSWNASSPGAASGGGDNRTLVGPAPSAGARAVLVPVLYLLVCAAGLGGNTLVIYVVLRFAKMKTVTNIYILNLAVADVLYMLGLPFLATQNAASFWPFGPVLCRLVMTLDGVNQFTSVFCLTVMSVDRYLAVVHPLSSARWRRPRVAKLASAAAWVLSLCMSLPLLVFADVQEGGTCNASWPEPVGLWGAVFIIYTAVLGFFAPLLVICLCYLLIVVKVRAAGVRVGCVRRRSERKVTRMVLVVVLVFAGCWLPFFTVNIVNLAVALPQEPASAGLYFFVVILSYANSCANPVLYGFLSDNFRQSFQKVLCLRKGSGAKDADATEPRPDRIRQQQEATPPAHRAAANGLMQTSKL
assay protocol: Hit Hunter cAMP XS+ assay, SST5 activation via Gi (reduction of forskolin-stimulated cAMP)
Type: cell-based
condition description: selectivity for SST5 over SST2
*1 amine or outer side, *2 acyl side, *3 side chain or, on linkers, in order; H or OH if unused. Where a SMILES comes first, the peptide text is derived from it. Side-chain parts run from the residue outwards. [ ]: non-standard residue; d: D form. The star is where a group is joined. Ala(piperidin-4-yl) = O=C([C@H](CC1CCN([*:3])CC1)N[*:1])[*:2]; dTrp(5-OMe) = COc1ccc2[nH]cc(C[C@@H](N)C(=O)O)c2c1; dTrp(5-Me) = Cc1ccc2[nH]cc(C[C@@H](N)C(=O)O)c2c1; Ala(piperazin-1-yl) = N[C@@H](CN1CCNCC1)C(=O)O; Morpholine(3S-CO) = O=C(O)[C@@H]1COCCN1; Ethylenediamine = C(CN[*:2])N[*:1]; d(hPhe) = N[C@H](CCc1ccccc1)C(=O)O; Hyp = O=C(O)[C@@H]1C[C@@H](O)CN1; NMeF = CN[C@@H](Cc1ccccc1)C(=O)O; Pip(4-aza) = O=C(O)[C@@H]1CNCCN1; hPhe = N[C@@H](CCc1ccccc1)C(=O)O; 3Pal = N[C@@H](Cc1cccnc1)C(=O)O; Cyclohexylmethyl = C1CCC(C*)CC1; Tic = O=C(O)[C@@H]1Cc2ccccc2CN1; Phg = N[C@H](C(=O)O)c1ccccc1; X9 = O=C(C1CNCCN1[*:1])[*:2]; CO = O=C([*:1])[*:2]; Bn = c1ccc(C*)cc1; X1 = C1CCC(C*)C1
measurement label: SST5/2 Selectivity

Solved entries (count: 3):
- compound: "COc1ccc2[nH]cc(C[C@H]3NC(=O)[C@H](c4ccccc4)NC(=O)[C@@H]4C[C@@H](OC(=O)NCCN)CN4C(=O)[C@H](Cc4ccccc4)NC(=O)[C@H](Cc4ccc(OCc5ccccc5)cc4)NC(=O)[C@H](CC4CCNCC4)NC3=O)c2c1 [Example 5] (cyclo(F[Hyp]([CO-Ethylenediamine])[Phg][dTrp(5-OMe)][Ala(piperidin-4-yl)]Y(Bn)))"
  value observed: 33.8
- compound: "CN1C(=O)[C@H](Cc2ccc(OCc3ccccc3)cc2)NC(=O)[C@H](CN2CCNCC2)NC(=O)[C@@H](Cc2c[nH]c3ccccc23)NC(=O)[C@H](CCc2ccccc2)NC(=O)[C@@H]2C[C@@H](OC(=O)NCCN)CN2C(=O)[C@@H]1Cc1ccccc1 [Example 57] (cyclo([Hyp]([CO-Ethylenediamine])[hPhe][dW][Ala(piperazin-1-yl)]Y(Bn)[NMeF]))"
  value observed: 404.6
- compound: "O=C1N[C@@H](Cc2ccc(OCc3ccccc3)cc2)C(=O)N2Cc3ccccc3C[C@H]2C(=O)N2CCNC[C@H]2C(=O)N[C@@H](CCc2ccccc2)C(=O)N[C@H](Cc2c[nH]c3ccccc23)C(=O)N[C@H]1CC1CCNCC1 [Example 73] (cyclo([Tic][Pip(4-aza)][hPhe][dW][Ala(piperidin-4-yl)]Y(Bn)))"
  value observed: 566.7

Which SST5/2 Selectivity value is on record for Cc1ccc2[nH]cc(C[C@H]3NC(=O)[C@H](c4ccccc4)NC(=O)[C@@H]4C[C@@H](OC(=O)NCCN)CN4C(=O)[C@H](Cc4ccccc4)NC(=O)[C@H](Cc4ccc(OCc5ccccc5)cc4)NC(=O)[C@H](CC4CCNCC4)NC3=O)c2c1 [Example 13] (cyclo(F[Hyp]([CO-Ethylenediamine])[Phg][dTrp(5-Me)][Ala(piperidin-4-yl)]Y(Bn))) ?
87.2

What value of SST5/2 Selectivity has been recorded for this entry: COc1ccc(C[C@@H]2NC(=O)[C@H](Cc3ccc(OCc4ccccc4)cc3)NC(=O)[C@H](CC3CCNCC3)NC(=O)[C@@H](Cc3c[nH]c4ccccc34)NC(=O)[C@@H](CCc3ccccc3)NC(=O)[C@@H]3C[C@@H](OC(=O)NCCN)CN3C2=O)cc1 [Example 55] (cyclo([Hyp]([CO-Ethylenediamine])[d(hPhe)][dW][Ala(piperidin-4-yl)]Y(Bn)Y(Me)))
1120.0

Item under review: NCCNC(=O)O[C@@H]1C[C@H]2C(=O)N[C@@H](CCc3ccccc3)C(=O)N[C@H](Cc3c[nH]c4ccccc34)C(=O)N[C@@H](CC3CCNCC3)C(=O)N[C@@H](Cc3ccc(OCc4ccccc4)cc3)C(=O)N[C@@H](Cc3cccnc3)C(=O)N2C1 [Example 3] (cyclo([3Pal][Hyp]([CO-Ethylenediamine])[hPhe][dW][Ala(piperidin-4-yl)]Y(Bn))) . Reported SST5/2 Selectivity?
236.7

Given NCCNC(=O)O[C@@H]1C[C@H]2C(=O)N[C@@H](CCc3ccccc3)C(=O)N[C@H](Cc3c[nH]c4ccccc34)C(=O)N[C@@H](CC3CCNCC3)C(=O)N[C@@H](Cc3ccc(OCC4CCCC4)cc3)C(=O)N[C@@H](Cc3cccnc3)C(=O)N2C1 [Example 49] (cyclo([3Pal][Hyp]([CO-Ethylenediamine])[hPhe][dW][Ala(piperidin-4-yl)]Y(X1))) , state its recorded SST5/2 Selectivity.
143.3

Which value of SST5/2 Selectivity has been reported for O=C1N[C@@H](Cc2ccc(OCc3ccccc3)cc2)C(=O)N2Cc3ccccc3C[C@H]2C(=O)N2CCOC[C@H]2C(=O)N[C@@H](CCc2ccccc2)C(=O)N[C@H](Cc2c[nH]c3ccccc23)C(=O)N[C@H]1CN1CCNCC1 [Example 31] (cyclo([Tic][Morpholine(3S-CO)][hPhe][dW][Ala(piperazin-1-yl)]Y(Bn))) in the records?
3441.5

// query SST5/2 Selectivity value for entry O=C1N[C@@H](Cc2ccc(OCc3ccccc3)cc2)C(=O)N2Cc3ccccc3C[C@H]2C(=O)N2CCOC[C@H]2C(=O)N[C@@H](CCc2ccccc2)C(=O)N[C@H](Cc2c[nH]c3ccccc23)C(=O)N[C@H]1CC1CCNCC1 [Example 45] (cyclo([Tic][Morpholine(3S-CO)][hPhe][dW][Ala(piperidin-4-yl)]Y(Bn)))
430.7

State the recorded SST5/2 Selectivity for this entry: O=C1N[C@@H](CCc2ccccc2)C(=O)N[C@H](Cc2c[nH]c3ccccc23)C(=O)N[C@@H](CN2CCNCC2)C(=O)N[C@@H](Cc2ccc(OCc3ccccc3)cc2)C(=O)N2Cc3ccccc3C[C@H]2C(=O)N2CCNCC12 (some centres unmarked) [Example 65] (cyclo([Tic][X9][hPhe][dW][Ala(piperazin-1-yl)]Y(Bn)))
2293.7

Requested field: SST5/2 Selectivity. Item: NCCNC(=O)O[C@@H]1C[C@H]2C(=O)N[C@@H](c3ccccc3)C(=O)N[C@H](Cc3c[nH]c4ccccc34)C(=O)N[C@@H](CN3CCNCC3)C(=O)N[C@@H](Cc3ccc(OCC4CCCCC4)cc3)C(=O)N[C@@H](Cc3ccccc3)C(=O)N2C1 [Example 27] (cyclo(F[Hyp]([CO-Ethylenediamine])[Phg][dW][Ala(piperazin-1-yl)]Y(Cyclohexylmethyl)))
159.6
